Quick list: growth inhibition per entry.
assay: NCI Yeast Anticancer Drug Screen. Data for the mec2-1 strain (AID 157); settings: S. cerevisiae mec2-1 strain, at 1.2 µM, stronger effect = higher value
Compounds without any hit were thinned out: in the full panel of roughly 79,000, 15% have a hit. Calls of active or inactive are those of the source. Cut-off read from the data, not from the text of the source: active = growth inhibition above about 70%; inactive = the rest. Starred links: 1 amine or outer side, 2 acyl side, 3 side chain; linkers in the order of their positions; H or OH if unused. Positions of bridges follow the written chain, without caps; N, C: chain ends. Non-standard residues stand in square brackets, D forms with d. Residues, ends and D or L forms follow the SMILES beside them. Chains are numbered I, II in the order given. Actinocin(9to1) = Cc1c2oc3c(C)ccc(C(=O)[*:1])c3nc-2c(C(=O)[*:2])c(N)c1=O; aThr = C[C@H](O)[C@H](N)C(=O)O; NMeV = CN[C@H](C(=O)O)C(C)C; Sar = CNCC(=O)O

What value of growth inhibition has been recorded for this entry: CCOc1ccc2ccc3cccnc3c2n1
-4% (inactive)

Give the measured growth inhibition of O=c1[nH]cc(F)c(=O)[nH]1 .
11% (inactive)

Give its growth inhibition value. Item: Cc1c2oc3c(C)ccc(C(=O)N[C@@H]4C(=O)N[C@H](C(C)C)C(=O)N5CCC[C@H]5C(=O)N(C)CC(=O)N(C)[C@@H](C(C)C)C(=O)O[C@H]4C)c3nc-2c(C(=O)N[C@@H]2C(=O)N[C@H](C(C)C)C(=O)N3CCC[C@H]3C(=O)N(C)CC(=O)N(C)[C@@H](C(C)C)C(=O)O[C@H]2C)c(N)c1=O (I: [aThr][dV]P[Sar][NMeV] / II: [aThr][dV]P[Sar][NMeV]; ester I:1-I:C, II:1-II:C; linker I:N-II:N via Actinocin(9to1))
1% (inactive)

Which growth inhibition reading was recorded for the compound CN(C)CCNC(=O)c1cccc2nc3c4ccccc4c4ccccc4c3nc12 ?
0% (inactive)

Entry c1cc2ccc3cc4ncccc4c4ccc(c1)c2c34 has what growth inhibition?
-2% (inactive)

I'd like to know its growth inhibition. The compound in question is COc1cc(C(C)C(C(=O)O)C(=O)C(=O)O)cc(OC)c1OC (centres undefined)
-5% (inactive)

Continuing:
Query (compound): COC1=C(N=[N+]=[N-])C(=O)c2ncccc2C1=O ; field requested: growth inhibition
6% (inactive)

If you can, please state the reported growth inhibition value of CCOC(=O)/C(O)=C(/C=N/C(=S)Nc1c(CC)cccc1CC)C(=O)OCC .
-10% (inactive)

Entry c1ccc(C2=NNC3c4ccccc4-c4ccccc4N3C2)cc1 (centres undefined) has what growth inhibition?
1% (inactive)
